- Tested on: IGROV-1
- test-details: NCI tumour cell line growth inhibition, 48 h
The source made the active and inactive calls. Rule as the data show it: active = GI50 up to about 1.1 µM and inactive = higher.
property-label: GI50

Example results:
compound | result
COc1ccc(C2S/C(=C\c3ccc(OC)cc3OC)C(=O)N2NC(=O)Cc2ccccc2)cc1 (stereo not given) | > 100 µM (inactive)
N=C(N)SCc1ccc(Cl)c2ccccc12.O=[N+]([O-])c1c(O)c(Cl)cc(Cl)c1Cl | 13 µM (inactive)
C/C1=C\[C@H](C)C[C@H](C)OC(=O)[C@H](C)NC(=O)[C@@H](Cc2ccc(O)c(Br)c2)N(C)C(=O)[C@H](C)NC(=O)[C@@H](C)C1 | 0.0152 µM (active)
COc1ccc(-c2nc(-c3ccc(OC)cc3)n(-c3ccccc3)n2)cc1 | > 100 µM (inactive)

Input: Report GI50 for "Cc1cccc(NC(=S)Nc2ccccc2Cl)n1" please.
Output: 30.1 µM (inactive)
